Entry source: ChEMBL document CHEMBL4699476

Each item that follows carries a reported pIC50.
System: MV4-11
experiment_summary: Antiproliferative activity against human MV4-11 cells incubated for 6 days relative to control
Format: functional, cell-based
condition_details: MV4-11, 144 h
pIC50: −log10 of the molar value.

- smiles_string: "CNC(=O)N1CCCc2ccc(NC(=O)c3ccc(-c4cc[nH]n4)cc3)cc21"
  pIC50: 6.26
- smiles_string: "CNC(=O)N1CCCc2ccc(NC(=O)c3ccc(-c4cnn(C)c4)cc3)cc21"
  pIC50: 6.14
- smiles_string: "CNC(=O)N1CCCc2ccc(NC(=O)c3cccc(-c4cnn(C)c4)c3)cc21"
  pIC50: 5.98
- smiles_string: "CNC(=O)N1CCCc2ccc(NC(=O)c3ccc(-c4cccnc4)cc3)cc21"
  pIC50: 5.94
- smiles_string: "CNC(=O)N1CCCc2ccc(NC(=O)c3ccc(-c4ccn(C)n4)cc3)cc21"
  pIC50: 6.08
- smiles_string: "CNC(=O)N1CCCc2ccc(NC(=O)c3cccc(-c4ccn(C)n4)c3)cc21"
  pIC50: 6.01
- smiles_string: "CNC(=O)N1CCCc2ccc(NC(=O)c3ccc(-c4cn[nH]c4)cc3)cc21"
  pIC50: 6.06

====

System: MV4-11
experiment_summary: Antiproliferative activity against human MV4-11 cells at 6.25 uM incubated for 6 days relative to control
Type: functional
condition_details: MV4-11, 144 h, time 6 day
Measured inhibition at 6.25 µM, listed per entry for reference.
quantity: inhibition at 6.25 µM

- smiles_string: "CNC(=O)N1CCCc2ccc(NC(=O)c3cccc(-c4cnn(C)c4)c3)cc21"
  measured_value: "93.5%"
- smiles_string: "CNC(=O)N1CCCc2ccc(NC(=O)c3ccc(-c4cc[nH]n4)cc3)cc21"
  measured_value: "99.1%"
- smiles_string: "CNC(=O)N1CCCc2ccc(NC(=O)c3ccc(-c4cnn(C)c4)cc3)cc21"
  measured_value: "94.4%"
- smiles_string: "CNC(=O)N1CCCc2ccc(NC(=O)c3ccccc3-c3ccccc3)cc21"
  measured_value: "1.39%"
- smiles_string: "CNC(=O)N1CCCc2ccc(NC(=O)c3ccc(-c4ccccc4)cc3)cc21"
  measured_value: "74.3%"
- smiles_string: "CNC(=O)N1CCCc2ccc(NC(=O)c3cccc(-c4ccn(C)n4)c3)cc21"
  measured_value: "99.5%"
- smiles_string: "CNC(=O)N1CCCc2ccc(NC(=O)c3cccc(-c4ccn(C(C)=O)n4)c3)cc21"
  measured_value: "87.6%"
- smiles_string: "CNC(=O)N1CCCc2ccc(NC(=O)c3ccc(-c4ccn(S(C)(=O)=O)n4)cc3)cc21"
  measured_value: "57.2%"
- smiles_string: "CNC(=O)N1CCCc2ccc(NC(=O)c3cccc(-c4ccccc4)c3)cc21"
  measured_value: "60.4%"
- smiles_string: "CNC(=O)N1CCCc2ccc(NC(=O)c3ccc(-c4cnn(C(C)=O)c4)cc3)cc21"
  measured_value: "83.8%"
- smiles_string: "CNC(=O)N1CCCc2ccc(NC(=O)c3cccc(-c4ccn(S(C)(=O)=O)n4)c3)cc21"
  measured_value: "37%"
- smiles_string: "CNC(=O)N1CCCc2ccc(NC(=O)c3cccc(-c4cc[nH]n4)c3)cc21"
  measured_value: "89.7%"
- smiles_string: "CNC(=O)N1CCCc2ccc(NC(=O)c3ccc(-c4ccccn4)cc3)cc21"
  measured_value: "79.2%"
- smiles_string: "CNC(=O)N1CCCc2ccc(NC(=O)c3ccc(-c4cn[nH]c4)cc3)cc21"
  measured_value: "98.3%"
- smiles_string: "CNC(=O)N1CCCc2ccc(NC(=O)c3ccc(-c4ccn(C)n4)cc3)cc21"
  measured_value: "97%"
- smiles_string: "CNC(=O)N1CCCc2ccc(NC(=O)c3cccc(-c4cnn(C(C)=O)c4)c3)cc21"
  measured_value: "82%"
- smiles_string: "CNC(=O)N1CCCc2ccc(NC(=O)c3cccc(-c4cnn(S(C)(=O)=O)c4)c3)cc21"
  measured_value: "18%"
- smiles_string: "CNC(=O)N1CCCc2ccc(NC(=O)c3ccc(-c4cnn(S(C)(=O)=O)c4)cc3)cc21"
  measured_value: "40.2%"
- smiles_string: "CNC(=O)N1CCCc2ccc(NC(=O)c3ccc(-c4ccn(C(C)=O)n4)cc3)cc21"
  measured_value: "91.3%"
- smiles_string: "CNC(=O)N1CCCc2ccc(NC(=O)c3ccc(-c4cccnc4)cc3)cc21"
  measured_value: "92.1%"
- smiles_string: "CNC(=O)N1CCCc2ccc(NC(=O)c3cccc(-c4cn[nH]c4)c3)cc21"
  measured_value: "77.7%"
- smiles_string: "CNC(=O)N1CCCc2ccc(NC(=O)c3ccc(-c4ccncc4)cc3)cc21"
  measured_value: "88.7%"
